subject-of-test: T1, Human CD19-his protein (human, UniProt P15391 20-291)
T1 construct: bought protein; also called human CD19 protein; recombinant human CD19-His; not shown: His tag
T1 sequence (looked up): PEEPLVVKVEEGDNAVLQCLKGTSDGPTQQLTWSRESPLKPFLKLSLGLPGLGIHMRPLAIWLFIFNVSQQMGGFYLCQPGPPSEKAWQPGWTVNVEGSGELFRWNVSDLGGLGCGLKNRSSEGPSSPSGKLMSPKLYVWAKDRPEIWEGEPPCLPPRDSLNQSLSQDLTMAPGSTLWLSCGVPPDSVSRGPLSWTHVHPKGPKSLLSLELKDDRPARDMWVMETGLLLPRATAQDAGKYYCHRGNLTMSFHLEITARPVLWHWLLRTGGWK
test-method-notes: ELISA, antibody at 0.0001 nM
Procedure: Human CD19-his protein (purchased from ACROBiosystems, catalog number: CD9-H52H2) was diluted with PBS to a final concentration of 4 μg/mL, and then added to a 96-well ELISA plate at 100 μl/well. […] The OD450 nm values were read by an ELISA microplate reader (Multimode Plate Reader, EnSight, purchased from Perkin Elmer).
measured-quantity: OD450
Could you respond with only the numeric value?

| binder | OD450 |
| --- | --- |
| F2.15.26 (antibody, human IgG1, V domains shown, human-murine chimeric antibody, human IgG1) VH: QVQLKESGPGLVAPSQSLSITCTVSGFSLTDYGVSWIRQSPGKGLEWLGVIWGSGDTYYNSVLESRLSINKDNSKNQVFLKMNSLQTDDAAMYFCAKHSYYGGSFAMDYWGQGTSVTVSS VL: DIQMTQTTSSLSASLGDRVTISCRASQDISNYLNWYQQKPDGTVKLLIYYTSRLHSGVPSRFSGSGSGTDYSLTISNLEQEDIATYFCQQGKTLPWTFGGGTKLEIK | 0.05 |
| F6.5.20 (antibody, human IgG1, V domains shown, human-murine chimeric antibody, human IgG1) VH: QVQLQQPGAELVKPGASVKLSCKASGYTFTSYWMQWVKQRPGQGLEWIGEIDPSDSYTNYNQKFKGKASLTVDTSSSTAYMQLSSLTSEDSAVYYCARWGLLRNYYVMDYWGQGTSVTVSS VL: EIVLTQSPTTMAASPGEKITITCSASSSISSNYLHWYQQKPGFSPKLLIYRTSNLASGVPARFSGSGSGTSYSLTIGTMEAEDVATYYCQQGSSIPRMLTFGAGTKLELK | 0.05 |
| F3.23.10 (antibody, human IgG1, V domains shown, human-murine chimeric antibody, human IgG1) VH: EFQLQQSGPELVKPGASVKISCKASDYSFTDYNMNWVKQSNGASLEWIGIINPNFGSTSYNQKFKGKATLTVDQSSSTAFMQLNSLTSEDSAVYYCARSEYYGSSGFAYWGQGTLVTVSA VL: DVVVTQTPLSLPVSFGDQVSISCRSSQSLVNSYGNTYLSWYLHKPGQSPQLLIYGISNRFSGVPDRFSGSGSGTDFTLKITTIKPEDLGMYYCLQGTHQPWTFGGGTKLEIK | 0.05 |
| F4.37.6 (antibody, human IgG1, V domains shown, human-murine chimeric antibody, human IgG1) VH: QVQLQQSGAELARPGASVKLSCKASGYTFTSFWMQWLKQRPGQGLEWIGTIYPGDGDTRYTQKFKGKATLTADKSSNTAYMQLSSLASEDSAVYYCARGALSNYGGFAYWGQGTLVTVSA VL: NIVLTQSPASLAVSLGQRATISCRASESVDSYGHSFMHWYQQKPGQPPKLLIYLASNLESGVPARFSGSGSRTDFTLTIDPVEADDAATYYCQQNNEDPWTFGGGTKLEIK | 0.07 |
| F4.21.2 (antibody, human IgG1, V domains shown, human-murine chimeric antibody, human IgG1) VH: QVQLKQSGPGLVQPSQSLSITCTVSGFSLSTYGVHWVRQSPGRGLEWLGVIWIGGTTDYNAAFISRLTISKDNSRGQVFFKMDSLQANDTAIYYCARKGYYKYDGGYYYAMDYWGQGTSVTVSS VL: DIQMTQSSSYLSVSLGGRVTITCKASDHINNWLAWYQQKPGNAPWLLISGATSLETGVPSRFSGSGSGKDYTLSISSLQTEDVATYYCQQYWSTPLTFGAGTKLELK | 0.07 |

Now take the following binder into account.
**Q:** Could you please provide reported OD450 for F3.121.4 (antibody, human IgG1, V domains shown, human-murine chimeric antibody, human IgG1; also called chimeric antibody F3.121.4) VH: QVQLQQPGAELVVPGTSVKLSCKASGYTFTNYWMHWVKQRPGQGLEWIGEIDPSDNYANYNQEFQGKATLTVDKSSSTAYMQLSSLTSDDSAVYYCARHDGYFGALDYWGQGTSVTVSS VL: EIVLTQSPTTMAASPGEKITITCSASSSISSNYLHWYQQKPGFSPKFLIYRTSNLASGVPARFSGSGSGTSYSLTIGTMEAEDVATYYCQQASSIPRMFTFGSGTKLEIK ? Thanks!
**A:** 0.05
